Target: T1, human CD71 extracellular domain (CD71-ECD) (human, UniProt P02786 89-760)
T1 construct: also called hCD71; human CD71-ECD
T1 sequence (P02786 89-760): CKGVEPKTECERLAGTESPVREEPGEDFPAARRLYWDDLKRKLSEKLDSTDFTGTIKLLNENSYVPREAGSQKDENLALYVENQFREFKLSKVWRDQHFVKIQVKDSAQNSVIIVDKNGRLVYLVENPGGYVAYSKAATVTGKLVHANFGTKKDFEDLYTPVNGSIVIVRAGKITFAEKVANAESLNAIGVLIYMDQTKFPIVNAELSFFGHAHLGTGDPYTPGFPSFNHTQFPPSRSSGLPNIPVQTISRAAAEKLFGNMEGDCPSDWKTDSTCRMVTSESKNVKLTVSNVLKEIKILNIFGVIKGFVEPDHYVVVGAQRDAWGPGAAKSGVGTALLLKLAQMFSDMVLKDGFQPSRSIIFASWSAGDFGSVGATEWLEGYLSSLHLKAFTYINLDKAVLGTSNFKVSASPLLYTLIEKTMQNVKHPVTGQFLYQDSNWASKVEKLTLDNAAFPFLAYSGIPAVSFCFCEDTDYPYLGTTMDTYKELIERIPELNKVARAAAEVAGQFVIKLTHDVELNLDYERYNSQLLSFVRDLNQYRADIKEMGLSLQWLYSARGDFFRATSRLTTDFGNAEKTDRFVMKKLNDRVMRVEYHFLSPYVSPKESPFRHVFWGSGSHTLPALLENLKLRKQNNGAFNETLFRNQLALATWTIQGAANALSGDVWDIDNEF
Experiment: primary ELISA, RLU ratio to HSA
binders and their reported hCD71:HSA
Answer as a number with no unit attached.

Take a look at these entries with their results.
BINDER	REPORTED_METRIC	MEASURED
CD71-binding FN3 domain SEQ ID NO: 278 (designed binder) MSLPAPKNLVVSRVTEDSARLSWTAPDAAFDSFEIGYFENLYLGEAIVLTVPGSERSHDLTGLKPGTEYWVQIGGVKGGNWSAPLSAIFTT	hCD71:HSA	435
CD71-binding FN3 domain SEQ ID NO: 250 (designed binder) MSLPAPKNLVVSRVTEDSARLSWTAPDAAFDSFEIGYFENLYLGEAIVLTVPGSERSYDLTGLKPGTEYWVQIGGVNGGNWSAPLSAIFTT	hCD71:HSA	140
CD71-binding FN3 domain SEQ ID NO: 322 (designed binder) MSLPAPKNLVVSRVTEDSARLSWTAPDAAFDSFEIGYFEITRYGEAIILFVPGSERSYDLTGLKPGTEYWVQIGGVKGGNWSAPLSAIFTT	hCD71:HSA	171

State its hCD71:HSA for this binder: CD71-binding FN3 domain SEQ ID NO: 256 (designed binder) MSLPVPKNLVVSRVTEDSARLSWTAPDAAFDSFEIGYFENLYLGEAIVLTVPGSERSYDLTGLKPGTEYWVQIGGVKGGNWSAPLSAIFTT
193
